meta.source: paper PMC8571713

Target: hSARM1 (human SARM1) (Homo sapiens, UniProt Q6SZW1)
Sequence (Q6SZW1 28-724): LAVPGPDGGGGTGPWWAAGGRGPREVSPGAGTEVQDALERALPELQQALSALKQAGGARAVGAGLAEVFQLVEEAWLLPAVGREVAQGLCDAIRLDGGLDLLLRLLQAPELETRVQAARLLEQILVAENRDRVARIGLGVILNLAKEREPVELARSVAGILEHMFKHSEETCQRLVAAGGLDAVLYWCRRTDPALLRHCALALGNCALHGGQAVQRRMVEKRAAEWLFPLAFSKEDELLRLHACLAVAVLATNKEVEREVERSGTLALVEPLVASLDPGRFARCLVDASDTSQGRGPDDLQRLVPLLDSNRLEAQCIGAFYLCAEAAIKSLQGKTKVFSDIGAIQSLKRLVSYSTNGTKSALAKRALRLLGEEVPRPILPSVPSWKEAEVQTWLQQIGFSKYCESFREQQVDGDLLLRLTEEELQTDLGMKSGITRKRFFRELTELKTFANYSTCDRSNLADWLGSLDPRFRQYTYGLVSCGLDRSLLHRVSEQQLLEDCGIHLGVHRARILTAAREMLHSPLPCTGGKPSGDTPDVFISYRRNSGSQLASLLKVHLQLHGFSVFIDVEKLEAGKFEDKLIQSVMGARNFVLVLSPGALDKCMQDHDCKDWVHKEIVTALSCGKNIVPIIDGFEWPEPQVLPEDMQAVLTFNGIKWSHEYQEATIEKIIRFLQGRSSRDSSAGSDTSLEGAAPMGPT
Test: STD NMR with NMN competition
MEASURED_ENDPOINT: IC50 (µM)
The reply should be a number in µM, with the unit left off.

Data request: # query: IC50 of entry O=C([O-])c1ccc[n+]([C@@H]2O[C@H](COP(=O)(O)O)[C@@H](O)[C@H]2O)c1 [NaMN, nicotinic acid mononucleotide]
Data returned: 93.3
